measuredOn: c-Src SH2
assayText: SH2 binding enrichment of the phosphorylated peptide, bacterial display (enrichment ratio); higher = better substrate or ligand; peptides without Tyr show the background
SH2 binding enrichment: recorded values
Form rule: numeric answer, no unit written next to it.

>  <primarySequence>
VIERSYTSADG [DHCR7_Y382_C380R]

>  <measuredOn>
c-Src SH2

>  <numericReadout>
1.39

$$$$
>  <primarySequence>
ISISPYPAILH [IFT80_Y588_T586S]

>  <measuredOn>
c-Src SH2

>  <numericReadout>
0.408

$$$$
>  <primarySequence>
GTQCSYLLSRK [UGT3A1_Y123]

>  <measuredOn>
c-Src SH2

>  <numericReadout>
0.704

$$$$
>  <primarySequence>
ELTSKYRGGGG [HBA1_Y141_V136E]

>  <measuredOn>
c-Src SH2

>  <numericReadout>
0.469

$$$$
>  <primarySequence>
FDEFRYRSFIK [CFTR_Y517_V520F_YF]

>  <measuredOn>
c-Src SH2

>  <numericReadout>
0.414

$$$$
>  <primarySequence>
VFPIDYFFPPQ [AR_Y552_L548F_YF]

>  <measuredOn>
c-Src SH2

>  <numericReadout>
0.646

$$$$
>  <primarySequence>
TSESSYYKSLN [NGEF_Y288_A286S]

>  <measuredOn>
c-Src SH2

>  <numericReadout>
0.65

$$$$
>  <primarySequence>
ALEQKYWALGQ [MAP1A_Y1555]

>  <measuredOn>
c-Src SH2

>  <numericReadout>
1.49

$$$$

Next:
Param item = KSPDSYQKILL [ATM_Y1415] ; retrieve measured SH2 binding enrichment.
1.24

###

measuredOn: Grb2 SH2 (UniProt P62993)
Sequence (P62993 whole entry, looked up): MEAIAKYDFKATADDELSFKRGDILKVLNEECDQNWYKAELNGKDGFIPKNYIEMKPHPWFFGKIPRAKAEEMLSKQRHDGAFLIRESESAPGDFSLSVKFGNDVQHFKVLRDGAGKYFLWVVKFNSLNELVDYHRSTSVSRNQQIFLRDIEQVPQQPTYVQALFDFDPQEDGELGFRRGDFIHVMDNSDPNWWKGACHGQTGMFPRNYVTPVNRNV
assayText: SH2 binding enrichment of the phosphorylated peptide, bacterial display (enrichment ratio); higher = better substrate or ligand; peptides without Tyr show the background
The entries below are paired with their reported SH2 binding enrichment.
Keep the answer to the number alone.

Field: example entries. Status: answers known.
>  <primarySequence>
VFFGSYSRPFG [NKAP_Y104_YF]

>  <measuredOn>
Grb2 SH2 (UniProt P62993)

>  <SH2 binding enrichment>
1.24

$$$$
>  <primarySequence>
VDYQPYRKHKY [TEX37_Y28]

>  <measuredOn>
Grb2 SH2 (UniProt P62993)

>  <SH2 binding enrichment>
0.917

$$$$
>  <primarySequence>
VCHELYNAIRD [PBRM1_Y54_T56A]

>  <measuredOn>
Grb2 SH2 (UniProt P62993)

>  <SH2 binding enrichment>
0.893

$$$$
>  <primarySequence>
GESLTYASTTF [C1orf162_Y120]

>  <measuredOn>
Grb2 SH2 (UniProt P62993)

>  <SH2 binding enrichment>
0.752

$$$$
>  <primarySequence>
NTEGGYRCICA [CRELD1_Y328]

>  <measuredOn>
Grb2 SH2 (UniProt P62993)

>  <SH2 binding enrichment>
0.97

$$$$
>  <primarySequence>
TSSSSYFDEPV [ARFGAP3_Y356]

>  <measuredOn>
Grb2 SH2 (UniProt P62993)

>  <SH2 binding enrichment>
0.762

$$$$

Consider the sequence STEVIYQPRRK [STK11_Y36] and give its measured SH2 binding enrichment.
0.585

May I ask what SH2 binding enrichment has been recorded for KLPFPYDDPFS [GPX2_Y127_YF] ?
1.12

# input sequence: NRDNTYNPVSE [FGA_Y127_R129P] ; wanted: its SH2 binding enrichment
0.694

Item under review: SVTCTYSPALS [TP53_Y126_N131S] . Reported SH2 binding enrichment?
0.844

###

measuredOn: c-Src SH2
assayText: SH2 binding enrichment of the phosphorylated peptide, bacterial display (enrichment ratio); higher = better substrate or ligand; peptides without Tyr show the background
Here the recorded SH2 binding enrichment is given for each entry.
Output spec: single numeric token, no unit.

These solved cases illustrate the format of a correct answer.
>  <primarySequence>
AGAKTYKMSMA [CPS1_Y309]

>  <numericReadout>
0.586

$$$$
>  <primarySequence>
HDRNTYEKFLE [TF_Y666_G671E_YF]

>  <numericReadout>
3.06

$$$$
>  <primarySequence>
AHEALYLEADL [CENPF_Y1920_E1915A]

>  <numericReadout>
0.399

$$$$
>  <primarySequence>
QRKPSYNQLAS [BRCA2_Y71]

>  <numericReadout>
1.06

$$$$

Request the reported SH2 binding enrichment associated with EYKDAYTFAAD [BRDT_Y335_K336T]
0.61

Which SH2 binding enrichment reading was recorded for the sequence ALHHPYGCDVE [ABL2_Y80_R78H] ?
0.773

// SH2 binding enrichment lookup, key: LFLALYTGLVR [PIGB_Y402_H407R]
1.01

Name the reported SH2 binding enrichment value associated with the sequence TSSSSYFDEPV [ARFGAP3_Y356]
0.569

Query (sequence): FLGRDYLETLM [DUS3L_Y610_YF] ; field requested: SH2 binding enrichment
0.563

Quick one: SH2 binding enrichment for EMTAEYACTRK [ACAD9_Y325] ?
0.692

Need SH2 binding enrichment of IRQDHYESLKE [MTR_Y921] , thanks.
5.75

What value of SH2 binding enrichment has been recorded for this entry: EKEKKYMLPLD [DNM2_Y563]
0.534

Which SH2 binding enrichment value is on record for MSRDVYSIDYY [NTRK2_Y702_T704I] ?
1.34

For the sequence ENFSEYQEISV [HEMGN_Y150_A154S] , what SH2 binding enrichment is on record?
0.617

Give its SH2 binding enrichment value. Item: SWVVPYEPPEV [TP53_Y220_V216W]
1.33

Can you share its SH2 binding enrichment? I mean this sequence: IVRSRYEDLED [VHL_Y185_L184R]
0.413

Recorded SH2 binding enrichment for VHVEVYDRPSP , please?
0.585

Dear colleague, I am looking for the recorded SH2 binding enrichment of the following sequence: LEHCQYVTEKV [ALDOB_Y204]
0.744

###

measuredOn: FGFR1 (UniProt P11362)
Sequence (P11362 whole entry, looked up): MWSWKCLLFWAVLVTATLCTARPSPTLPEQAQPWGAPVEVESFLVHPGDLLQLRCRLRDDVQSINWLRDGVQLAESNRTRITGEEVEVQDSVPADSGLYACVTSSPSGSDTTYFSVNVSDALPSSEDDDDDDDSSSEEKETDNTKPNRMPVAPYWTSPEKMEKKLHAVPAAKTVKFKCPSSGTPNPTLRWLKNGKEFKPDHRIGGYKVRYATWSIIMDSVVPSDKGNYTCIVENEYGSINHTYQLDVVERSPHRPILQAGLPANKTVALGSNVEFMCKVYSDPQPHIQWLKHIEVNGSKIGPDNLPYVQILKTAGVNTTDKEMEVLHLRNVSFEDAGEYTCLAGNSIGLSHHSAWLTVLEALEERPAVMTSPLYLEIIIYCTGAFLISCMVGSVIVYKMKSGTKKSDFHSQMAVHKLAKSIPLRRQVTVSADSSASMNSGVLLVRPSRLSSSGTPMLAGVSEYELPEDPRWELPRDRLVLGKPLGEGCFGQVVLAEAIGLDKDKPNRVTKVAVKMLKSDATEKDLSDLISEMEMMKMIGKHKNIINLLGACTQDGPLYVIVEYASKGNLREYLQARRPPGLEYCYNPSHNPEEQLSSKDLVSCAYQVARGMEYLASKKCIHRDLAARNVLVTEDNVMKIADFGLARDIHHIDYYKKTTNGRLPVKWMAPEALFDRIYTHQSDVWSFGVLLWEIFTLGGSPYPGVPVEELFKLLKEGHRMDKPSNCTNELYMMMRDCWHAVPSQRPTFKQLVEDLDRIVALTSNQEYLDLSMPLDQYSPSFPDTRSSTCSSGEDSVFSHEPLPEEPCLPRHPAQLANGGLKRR
assayText: phosphorylation enrichment, bacterial display (enrichment ratio); higher = better substrate or ligand; peptides without Tyr show the background
Overview of reported phosphorylation enrichment across a group of sequences:
Just the number, please, no unit after it.

>  <primarySequence>
ANNEFYFRVCA

>  <measuredOn>
FGFR1 (UniProt P11362)

>  <phosphorylation enrichment>
0.445

$$$$

Can you look up the measured phosphorylation enrichment of EVVGGYSVHNA [MLH1_Y183_R182G] for me?
0.339

Which measured phosphorylation enrichment value corresponds to RLAKTYKTTLE [ALB_Y377_E378K] ?
0.513

Given the entry LSQAKYQIRYR [CRLF1_Y272_F268S] , report its measured phosphorylation enrichment.
0.638

Look at this sequence and give its reported phosphorylation enrichment. STEVIYQPRRK [STK11_Y36]
0.424

Find the recorded phosphorylation enrichment belonging to PLFSKYWPNHI [GREB1L_Y1560_R1558S_YF] and report it.
0.823

Reported phosphorylation enrichment, sequence PAKPRYRARQR [KCNJ11_Y26_E23K] : ____
0.671

Please give the measured phosphorylation enrichment for this sequence: KVGNEYVTKGQ [MYH7_Y410]
0.393

Requested field: phosphorylation enrichment. Item: SGIYQYSIAKF [FOXL2_Y83_I84S]
1.71

# lookup: phosphorylation enrichment of GREFIYVDPMQ [PDGFRA_Y574_H570R_YF]
7.2

Requested read-out: phosphorylation enrichment. Entry: GLCSFYETSKM [MAGED2_Y449_R446C_YF]
0.568

I have this sequence here, SQSPHYFRSGR [GPATCH8_Y1038] , and I need its recorded phosphorylation enrichment.
0.383

Give the measured phosphorylation enrichment of EVEPRYVVLFD [ERCC4_Y577_YF] .
0.999

Query: phosphorylation enrichment; subject: YKTPIYPYLLP [PLD2_Y578_T577I]
2.43

Form field: reported phosphorylation enrichment of QRALLYEDALF [UNC13D_Y56_YF]
0.68

Give the measured phosphorylation enrichment of VGTKQYMAPEV [ACVRL1_Y375_R374Q] .
0.458

Given YETDYYQKGGK [INSR_Y1190_R1191Q] , state its recorded phosphorylation enrichment.
0.983

// phosphorylation enrichment lookup, key: AEDKPYAELWT [MPI_Y46_M51T]
1.01

Requested read-out: phosphorylation enrichment. Entry: SSFDIYHLSRE [KIR3DL2_Y253_YF]
1.44

Need phosphorylation enrichment of EFNLMYDGTKE [IRF6_Y97] , thanks.
0.498

###

System: AncSZ
assayText: phosphorylation enrichment, bacterial display (enrichment ratio); higher = better substrate or ligand; peptides without Tyr show the background
Values of phosphorylation enrichment greater than or equal to 1 map to yes; values below map to no.

>  <primarySequence>
NTFENYWPFFQ [GATM_Y103_K102N_YF]

>  <class>
yes

$$$$

Evaluate QRKRAYVEIEY [MAK16_Y282] : phosphorylation enrichment at minimum 1?
no

Confirm if phosphorylation enrichment reported for the sequence LDLSFYPTSSS [EMD_Y182_YF] is 1 or above.
yes

Hello, I need to know if LLNPSYNLPLD [TOM1L1_Y109_R108S] has measured phosphorylation enrichment not below 1. Thanks!
yes

Does phosphorylation enrichment meet or surpass 1 for IIRFNYLLDVL [FGFR4_Y237_S232I_YF] ?
yes

Test whether the sequence IHYPPYTDWNQ [ALDH3B2_Y365] records phosphorylation enrichment of 1 or higher.
no

In plain terms: is recorded phosphorylation enrichment at least 1 for LSQDVYEEDSY [RET_Y900_R897Q] ?
yes

Reported phosphorylation enrichment at or above 1? INMKKYCKKDF [NTN1_Y490_YF]
no

Decide: is the reported value of phosphorylation enrichment for NGEDLYAGSTD [XRCC1_Y515_P514L] equal to or greater than 1?
yes

Hi, just wondering whether LSDVIYVILRK [PMP22_Y153_G150D] shows phosphorylation enrichment of 1 or higher.
yes

Quick check, phosphorylation enrichment >= 1? CETMEYLESKQ [BTK_Y511_A508T]
yes

Evaluate GGPAGYLRRAS [PKLR_Y38] : phosphorylation enrichment at minimum 1?
no

Identify whether the reported phosphorylation enrichment of the following sequence is 1 or greater: MSRYIYSTDYY [NTRK1_Y676_D674Y]
yes

# check: phosphorylation enrichment of ALSDGYWVVSN [TPP1_Y459] is greater than or equal to 1
yes

hey, is phosphorylation enrichment for this one >= 1? GLCSFYETSKM [MAGED2_Y449_R446C_YF]
yes
